Values were extracted from patent US20220378931A1.

target: T1, human insulin receptor isoform A with C-terminal C9 tag (human, UniProt P06213 28-1382); experiment: 125I-insulin competition SPA, hIR-A membranes, 0.001% NP-40
T1 construct: membranes of stably transfected HEK293 cells; also called hIR-A; human IR-A
Property name: pKi
pKi is a log-scale quantity: -log10 of the concentration expressed in molar.

INS Analog 12 (other, single-chain insulin B-L2-A-L1-VHH fusion; also called Ex. 12) FVSQHLCGSHLVEALHLVCGERGFHYTPKTGGGGGGGIVEQCCHSICSLYQLENYCGPGPAPGPAPGPAPGPAPGPAPGPAPGPAPGPAEVQLLESGGGLVQPGGSLRLSCAASGRYIDETAVAWFRQAPGKEREFVAGIGGGVDITYYADSVKGRFTISRDNSKNTLYLQMNSLRPEDTAVYYCAARPGRPLITSKVADLYPYWGQGTLVTVSSPP : 7.60

Now for the binder whose pKi we want.
Ask: What value of pKi has been reported for the following binder? INS Analog 15 (other, single-chain insulin B-L2-A-L1-VHH fusion; also called Ex. 15) FVSQHLCGSHLVEALFLVCGERGFFYTPKTGGGGGGGIVEQCCTSICSLYQLENYCGPGPAPGPAPGPAPGPAPGPAPGPAPGPAPGPAEVQLLESGGGLVQPGGSLRLSCAASGRYIDETAVAWFRQAPGKEREFVAGIGGGVDITYYADSVKGRFTISRDNSKNTLYLQMNSLRPEDTAVYYCAARPGRPLITSKVADLYPYWGQGTLVTVSSPP
Result: 7.88
